Assay: Serum protease stability in 10% fetal calf serum (RP-HPLC)
Format: in vitro ADME
Conditions: cattle (fetal calf), 10% fetal calf serum in phosphate buffer; 2 h; 10% FCS, pH 7.3; read-out: % residual peptide ± SD
MEASURE NAME: remaining at 2 h, 10 μmol/L (%)
Kindly provide the numeric value in % only, without the unit symbol.

Enquiry: Which value of remaining at 2 h, 10 μmol/L has been reported for NC(=O)[C@@H](CS)NC(=O)C(CCCCNC(=O)C(CCCCNC(=O)[C@H](CC1CCCCC1)NC(=O)C(CSCc1ccccc1)NC(=O)[C@H](N)CCC(=O)O)NC(=O)[C@H](CC1CCCCC1)NC(=O)C(CSCc1ccccc1)NC(=O)[C@H](N)CCC(=O)O)NC(=O)C(CCCCNC(=O)[C@H](CC1CCCCC1)NC(=O)C(CSCc1ccccc1)NC(=O)[C@H](N)CCC(=O)O)NC(=O)[C@H](CC1CCCCC1)NC(=O)C(CSCc1ccccc1)NC(=O)[C@H](N)CCC(=O)O (stereo partly shown) in the records?
Return: 99

----------
Experiment: Serum protease stability in 10% fetal calf serum (RP-HPLC)
Type: in vitro ADME
Conditions: cattle (fetal calf), 10% fetal calf serum in phosphate buffer; 72 h; 10% FCS, pH 7.3; read-out: % residual peptide ± SD
MEASURE NAME: remaining at 72 h, 10 μmol/L (%)
Respond numerically; units are % and should not be typed.

Enquiry: Which value of remaining at 72 h, 10 μmol/L has been reported for NC(=O)[C@@H](CS)NC(=O)C(CCCCNC(=O)C(CCCCNC(=O)[C@H](CC1CCCCC1)NC(=O)C(CSCc1ccccc1)NC(=O)[C@H](N)CCC(=O)O)NC(=O)[C@H](CC1CCCCC1)NC(=O)C(CSCc1ccccc1)NC(=O)[C@H](N)CCC(=O)O)NC(=O)C(CCCCNC(=O)[C@H](CC1CCCCC1)NC(=O)C(CSCc1ccccc1)NC(=O)[C@H](N)CCC(=O)O)NC(=O)[C@H](CC1CCCCC1)NC(=O)C(CSCc1ccccc1)NC(=O)[C@H](N)CCC(=O)O (stereo partly shown) in the records?
Return: 92

----------
Experiment: Serum protease stability in 10% fetal calf serum (RP-HPLC)
Type: in vitro ADME
Conditions: cattle (fetal calf), 10% fetal calf serum in phosphate buffer; 4 h; 10% FCS, pH 7.3; read-out: % residual peptide ± SD
MEASURE NAME: remaining at 4 h, 10 μmol/L (%)
Field format: number, assumed %, no unit text.

Enquiry: Report remaining at 4 h, 10 μmol/L for NC(=O)[C@@H](CS)NC(=O)C(CCCCNC(=O)C(CCCCNC(=O)[C@H](CC1CCCCC1)NC(=O)C(CSCc1ccccc1)NC(=O)[C@H](N)CCC(=O)O)NC(=O)[C@H](CC1CCCCC1)NC(=O)C(CSCc1ccccc1)NC(=O)[C@H](N)CCC(=O)O)NC(=O)C(CCCCNC(=O)[C@H](CC1CCCCC1)NC(=O)C(CSCc1ccccc1)NC(=O)[C@H](N)CCC(=O)O)NC(=O)[C@H](CC1CCCCC1)NC(=O)C(CSCc1ccccc1)NC(=O)[C@H](N)CCC(=O)O (stereo partly shown) please.
Return: 97

----------
Test: Serum protease stability in 10% fetal calf serum (RP-HPLC)
Type: in vitro ADME
Details: cattle (fetal calf), 10% fetal calf serum in phosphate buffer; 120 h; 10% FCS, pH 7.3; read-out: % residual peptide ± SD
MEASURE NAME: remaining at 120 h, 10 μmol/L (%)
Hi! Could you send only the number? It should be in %, unit omitted.

Enquiry: Given NC(=O)[C@@H](CS)NC(=O)C(CCCCNC(=O)C(CCCCNC(=O)[C@H](CC1CCCCC1)NC(=O)C(CSCc1ccccc1)NC(=O)[C@H](N)CCC(=O)O)NC(=O)[C@H](CC1CCCCC1)NC(=O)C(CSCc1ccccc1)NC(=O)[C@H](N)CCC(=O)O)NC(=O)C(CCCCNC(=O)[C@H](CC1CCCCC1)NC(=O)C(CSCc1ccccc1)NC(=O)[C@H](N)CCC(=O)O)NC(=O)[C@H](CC1CCCCC1)NC(=O)C(CSCc1ccccc1)NC(=O)[C@H](N)CCC(=O)O (stereo partly shown) , state its recorded remaining at 120 h, 10 μmol/L.
Return: 91

This collection of values is drawn from patent US12653859B2.
